Target: T1, LIN7B, Q9HAP6
T1 sequence (Q9HAP6 88-185, limits assumed, looked up): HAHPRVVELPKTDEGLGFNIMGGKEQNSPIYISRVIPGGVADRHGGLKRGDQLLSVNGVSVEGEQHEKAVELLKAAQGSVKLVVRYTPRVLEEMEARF
Assay: holdup assay
Parameters: key: below the threshold = too weak to quantify, mostly under pKd 3.1 to 4
Settings: plain residues with an end cap or a label only (N-terminal biotin on a linker: ado-ado)
MEASURED QUANTITY: pKd

INSERT INTO measurements (binder, measured_quantity, result) VALUES
  ('WAKEKQHTRL [SLC17A1, Q14916]', 'pKd', 'below the threshold'),
  ('KAEEKPPSKV [SCN4B, Q8IWT1]', 'pKd', 'below the threshold'),
  ('SQDPKKPSRV [CBY2, Q8NA61]', 'pKd', 'below the threshold'),
  ('PDSYHRRDFW [U2AF2, P26368]', 'pKd', 'below the threshold');

I'm hoping you can list pKd for every binder here, please.
1. VCMGDHWFDV [PRKN, O60260]
2. FLVTEFNVML [DFNB31, Q9P202]
3. PSVYSRSQYV [CLDN8, P56748]
4. AKADAQESRL [PLCB2, Q00722]

Marked response:
1: below the threshold; 2: below the threshold; 3: below the threshold; 4: below the threshold
